The reported measurements were obtained from patent US20260152567A1.

# TESTED SYSTEM: T1, recombinant human CD73 protein (human, UniProt P21589 27-547)
# T1 construct: Bought soluble protein; The background says that CD73 forms a homodimer; also called soluble CD73; free CD73 protein
# T1 sequence (looked up): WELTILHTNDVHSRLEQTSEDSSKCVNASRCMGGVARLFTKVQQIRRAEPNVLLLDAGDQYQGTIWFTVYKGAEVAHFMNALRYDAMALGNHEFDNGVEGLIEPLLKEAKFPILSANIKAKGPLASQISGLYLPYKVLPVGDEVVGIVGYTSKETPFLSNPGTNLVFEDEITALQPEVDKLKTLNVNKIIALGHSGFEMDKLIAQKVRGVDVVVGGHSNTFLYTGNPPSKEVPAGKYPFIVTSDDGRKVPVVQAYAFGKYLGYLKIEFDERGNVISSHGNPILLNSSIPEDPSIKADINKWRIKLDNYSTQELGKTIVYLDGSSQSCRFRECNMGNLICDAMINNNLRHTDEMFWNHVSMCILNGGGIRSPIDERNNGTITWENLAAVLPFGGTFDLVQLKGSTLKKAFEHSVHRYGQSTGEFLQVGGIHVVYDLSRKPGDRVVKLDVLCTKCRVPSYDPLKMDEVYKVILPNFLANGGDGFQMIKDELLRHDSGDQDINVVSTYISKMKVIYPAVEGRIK
# METHOD SUMMARY: BLI (Fortebio), human CD73 on HIS1K biosensors, antibody as analyte
ENDPOINT NAME: kon (M⁻¹ s⁻¹)

binder="Hab7C3C2.9 (antibody, human IgG1, kappa, L234A L235A, V domains shown, Humanized 7C3C2; also called Huab7C3C.9) VH: QVQLVQSGAEVKKPGASVKVSCKASGYTFTSYDINWVRQATGQGLEWMGWIYPRDGFTKYAQKFQGRVTITVNTSISTAYMELSSLRSEDTAVYYCARKEGYRGDWYFDVWGQGTTVTVSS VL: DIQMTQSPSSLSASVGDRVTITCRASGNVHNYLAWYQQKPGKAPKLLLYNAKTLASGVPSRFSGSGSGTDYTLTISSLQPEDFATYYCQHFWSTPWTFGGGTELEIKR" measured_number=3.7e+06
